// provenance: paper PMC12135066

Catalogue of tissue uptake at 24 h readings, one per entry.
Experiment: in vivo
Details: female, CD1/nude, mouse, 5 MBq (0.5 nmol), total radioactivity, Kidneys

# COMPOUND, tissue uptake at 24 h, %ID/g
data = [
    ("CC(C)C[C@H](NC(=O)[C@H](Cc1ccc(O)cc1)NC(=O)[C@@H](CCCNC(=N)N)NC(=O)[C@@H](CO)NC(=O)[C@H](Cc1ccccc1)NC(=O)[C@H](CC1CCCCC1)NC(=O)[C@H](CC(=O)O)NC(=O)[C@H](CCCCNC(=O)CCOCCOCCOCCOCCNC(=O)CCCc1ccc(I)cc1)NC(=O)CN1CCN(CC(=O)O)CCN(CC(=O)O)CCN(CC(=O)O)CC1)C(=O)N[C@@H](Cc1c[nH]c2ccccc12)C(=O)N[C@@H](CO)C(N)=O [[^177Lu]Lu-uPAR-02, metal not drawn]", 3.6),
    ("CC(C)C[C@H](NC(=O)[C@H](Cc1ccc(O)cc1)NC(=O)[C@@H](CCCNC(=N)N)NC(=O)[C@@H](CO)NC(=O)[C@H](Cc1ccccc1)NC(=O)[C@H](CC1CCCCC1)NC(=O)[C@H](CC(=O)O)NC(=O)[C@H](CCCCNC(=O)CCOCCOCCOCCOCCNC(=O)c1ccc(CNC(=O)CCCc2ccc(I)cc2)cc1)NC(=O)CN1CCN(CC(=O)O)CCN(CC(=O)O)CCN(CC(=O)O)CC1)C(=O)N[C@@H](Cc1c[nH]c2ccccc12)C(=O)N[C@@H](CO)C(N)=O [[^177Lu]Lu-uPAR-03, metal not drawn]", 4.7),
]
